# molecule, melting point
records = [
    ("COc1cc(CN(CCOC(C)=O)S(C)(=O)=O)c(-c2ccc[nH]c2=O)cc1C(C)(C)C", "207 to 208 °C"),
    ("COc1cc(CNS(=O)(=O)c2ccccc2Cl)c(-c2ccc[nH]c2=O)cc1C(C)(C)C", "231 to 232 °C"),
    ("COc1cc(C(=O)N2CCN(C(C)=O)CC2)c(-c2ccc[nH]c2=O)cc1C(C)(C)C", "206 to 208 °C"),
    ("COc1cc(CN2CCN(C(=O)OC(C)(C)C)S2(=O)=O)c(-c2ccc[nH]c2=O)cc1C(C)(C)C", "125 to 127 °C"),
    ("COc1cc(CN2CCN(C)S2(=O)=O)c(-c2ccc[nH]c2=O)cc1C(C)(C)C", "253 to 255 °C"),
    ("COc1cc(CN2CCCS2(=O)=O)c(-c2ccc[nH]c2=O)cc1C(C)(C)C", "109.4 to 126.9 °C"),
    ("CCN(Cc1cc(OC)c(C(C)(C)C)cc1-c1ccc[nH]c1=O)S(C)(=O)=O", "245 to 246 °C"),
    ("COc1cc(CN(CC2CCNC2)S(C)(=O)=O)c(-c2ccc[nH]c2=O)cc1C(C)(C)C (centres unmarked)", "158 to 160 °C"),
    ("COc1cc(C(=O)N2CCC(F)(F)CC2)c(-c2ccc[nH]c2=O)cc1C(C)(C)C", "223 to 224 °C"),
    ("COc1cc(CNC(=O)c2cccc(NS(C)(=O)=O)c2)c(-c2ccc[nH]c2=O)cc1C(C)(C)C", "259 to 260 °C"),
    ("COc1cc(C(=O)O)c(-c2ccc[nH]c2=O)cc1C(C)(C)C", "244 to 245 °C"),
    ("COc1cc(CN(c2ccccc2)S(C)(=O)=O)c(-c2ccc[nH]c2=O)cc1C(C)(C)C", "226 to 227 °C"),
    ("COc1cc(CNC(=O)[C@H]2CC[C@H](NS(C)(=O)=O)C2)c(-c2ccc[nH]c2=O)cc1C(C)(C)C", "158 to 160 °C"),
    ("COc1cc(CCNS(C)(=O)=O)c(-c2ccc[nH]c2=O)cc1C(C)(C)C", "219.3 to 222.4 °C"),
    ("COc1cc(CN(C(C)C)S(C)(=O)=O)c(-c2ccc[nH]c2=O)cc1C(C)(C)C", "285 to 286 °C"),
    ("COc1cc(CN(CCO)S(C)(=O)=O)c(-c2ccc[nH]c2=O)cc1C(C)(C)C", "234.7 to 236 °C"),
    ("COc1cc(CO)c(-c2ccc[nH]c2=O)cc1C(C)(C)C", "215 to 216 °C"),
]

* * *

- tested system: HCV polymerase (NS5B570n-Con1) (Hepatitis C virus genotype 1b, UniProt Q9WMX2)
- Construct: contains a 21 amino acid deletion at the C-terminus relative to the full-length HCV polymerase; 6-histidine (N)
- test protocol: HCV NS5B RNA polymerase activity assay
Strictly below 200 nM in IC50: fulfilled. Otherwise: not fulfilled.

# compound, label class
records = [
    ("COc1cc(CN(CCO)S(C)(=O)=O)c(-c2ccc[nH]c2=O)cc1C(C)(C)C", "fulfilled"),
    ("COc1cc(CN(C)C(C)=O)c(-c2ccc[nH]c2=O)cc1C(C)(C)C", "fulfilled"),
    ("COc1cc(C(C)NS(C)(=O)=O)c(-c2ccc[nH]c2=O)cc1C(C)(C)C (centres unmarked)", "not fulfilled"),
    ("COc1cc(CN2CCNS2(=O)=O)c(-c2ccc[nH]c2=O)cc1C(C)(C)C", "fulfilled"),
    ("COc1cc(CN2C(=O)OC[C@@H]2C(C)C)c(-c2ccc[nH]c2=O)cc1C(C)(C)C", "fulfilled"),
    ("CC(=O)Nc1ccc(C(C)(C)C)cc1-c1ccc[nH]c1=O", "not fulfilled"),
    ("CCOC(=O)[C@H]1CCC(=O)N1Cc1cc(OC)c(C(C)(C)C)cc1-c1ccc[nH]c1=O", "fulfilled"),
    ("COc1cc(CNC(=O)c2cccnc2)c(-c2ccc[nH]c2=O)cc1C(C)(C)C", "fulfilled"),
]
